Parameter Ki: see the listing below.
experimental_system: Bcl-2-like protein 1 (Homo sapiens, UniProt Q07817)
Sequence (Q07817 whole entry): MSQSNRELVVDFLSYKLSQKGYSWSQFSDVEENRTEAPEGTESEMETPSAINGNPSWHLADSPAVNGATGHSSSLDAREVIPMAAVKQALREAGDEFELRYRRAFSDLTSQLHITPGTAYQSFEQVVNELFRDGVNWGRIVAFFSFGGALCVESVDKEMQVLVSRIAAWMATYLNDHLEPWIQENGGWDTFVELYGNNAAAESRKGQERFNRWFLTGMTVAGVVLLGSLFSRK
assay_procedure: Binding affinity to Bc1-xL (unknown origin) by fluorescence polarization competition assay
condition_context: read-out: Ki

>>> measured_value("O=C(O)c1ccccc1-c1cccc2c1c(-c1ccccc1)cn2Cc1cccc2ccccc12")
"> 200 µM"

Query string: Entry under review: CC(C)c1ccccc1-c1cn(CCOc2cccc3ccccc23)c2cccc(-c3ccccc3C(=O)O)c12 . Reported Ki?
Result string: > 200 µM

Query string: Entry under review: Cc1cccc(-c2cn(CCOc3cccc4ccccc34)c3cccc(-c4ccccc4C(=O)O)c23)c1C . Reported Ki?
Result string: > 200 µM

Query string: Entry under review: Cc1cccc(-c2cn(CCOc3cccc4ccccc34)c3cccc(-c4ccccc4C(=O)O)c23)c1 . Reported Ki?
Result string: > 200 µM

Query string: Entry under review: Cc1cccc(-c2cn(CCCOc3cccc4ccccc34)c3cccc(-c4ccccc4C(=O)O)c23)c1 . Reported Ki?
Result string: > 200 µM

Query string: Entry under review: O=C(O)c1ccccc1-c1cccc2c1c(-c1cccc(C(F)(F)F)c1)cn2CCCOc1cccc2ccccc12 . Reported Ki?
Result string: 3.1 µM

Query string: Entry under review: O=C(O)c1ccc(Cl)cc1-c1cccc2c1ccn2CCCOc1cccc2ccccc12 . Reported Ki?
Result string: 2.3 µM

Query string: Entry under review: COc1ccccc1-c1cn(Cc2cccc3ccccc23)c2cccc(-c3ccccc3C(=O)O)c12 . Reported Ki?
Result string: > 200 µM

Query string: Entry under review: Cc1ccc(-c2cn(Cc3cccc4ccccc34)c3cccc(-c4ccccc4C(=O)O)c23)cc1 . Reported Ki?
Result string: > 200 µM

====

experimental_system: Induced myeloid leukemia cell differentiation protein Mcl-1 (Homo sapiens)
Sequence (Q07820 whole entry): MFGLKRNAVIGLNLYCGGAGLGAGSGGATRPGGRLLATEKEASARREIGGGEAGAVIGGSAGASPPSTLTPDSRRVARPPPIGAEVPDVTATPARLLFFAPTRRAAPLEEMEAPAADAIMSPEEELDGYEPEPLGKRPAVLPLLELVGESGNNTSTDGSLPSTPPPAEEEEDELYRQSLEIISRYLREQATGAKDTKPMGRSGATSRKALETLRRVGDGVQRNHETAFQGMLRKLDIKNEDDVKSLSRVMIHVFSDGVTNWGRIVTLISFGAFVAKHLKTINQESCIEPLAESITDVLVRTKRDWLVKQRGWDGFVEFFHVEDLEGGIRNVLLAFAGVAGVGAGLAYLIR
assay_procedure: Binding affinity to Mc1-1 (unknown origin) by fluorescence polarization competition assay
Parameter pKi: see the listing below.
To interpret pKi, take it as minus log10 of a concentration measured in moles per litre.

>>> measured_value("O=C(O)c1ccccc1-c1cccc2c1c(-c1cccc(C(F)(F)F)c1)cn2CCCOc1cccc2ccccc12")
6.55
>>> measured_value("O=C(O)c1ccccc1-c1cccc2c1ccn2CCCOc1cccc2ccccc12")
5.92
>>> measured_value("O=C(O)c1ccccc1-c1cccc2c1c(-c1ccccc1)cn2Cc1cccc2ccccc12")
6.92
>>> measured_value("O=C(O)c1ccccc1-c1cccc2c1c(-c1cccc(Cl)c1)cn2Cc1cccc2ccccc12")
6.35

Query string: Entry under review: Cc1cccc(-c2cn(CCCOc3cccc4ccccc34)c3cccc(-c4ccccc4C(=O)O)c23)c1 . Reported pKi?
Result string: 5.88

====

experimental_system: UniProt:Q07817
assay_procedure: Binding affinity to Bc1-xL (unknown origin) by fluorescence polarization competition assay
condition_context: read-out: Ki
pKi: −log10 of the molar value.
Parameter pKi: see the listing below.

Recorded results for 7 molecules are shown here.
>>> measured_value("O=C(O)c1ccccc1-c1cccc2c1c(-c1cccc(C(F)(F)F)c1)cn2CCOc1cccc2ccccc12")
5.21
>>> measured_value("O=C(O)c1ccccc1-c1cccc2c1c(-c1cccc(C(F)(F)F)c1)cn2Cc1cccc2ccccc12")
"< 3.70"
>>> measured_value("COc1cccc(-c2cn(Cc3cccc4ccccc34)c3cccc(-c4ccccc4C(=O)O)c23)c1")
"< 3.70"
>>> measured_value("COc1ccccc1-c1cn(CCOc2cccc3ccccc23)c2cccc(-c3ccccc3C(=O)O)c12")
"< 3.70"
>>> measured_value("Cc1ccccc1-c1cn(Cc2cccc3ccccc23)c2cccc(-c3ccccc3C(=O)O)c12")
"< 3.70"
>>> measured_value("O=C(O)c1ccccc1-c1cccc2c1c(-c1cccc(Cl)c1)cn2Cc1cccc2ccccc12")
"< 3.70"
>>> measured_value("Cc1cc2c(C(C)C)c(O)c(O)c(C=O)c2c(O)c1-c1c(C)cc2c(C(C)C)c(O)c(O)c(C=O)c2c1O [GOSSYPOL]")
6.21

Query string: Entry under review: O=C(O)c1ccccc1-c1cccc2c1c(-c1cccc(Cl)c1)cn2CCOc1cccc2ccccc12 . Reported pKi?
Result string: 5.64
